System: M14
Assay: NCI tumour cell line growth inhibition, 48 h
The source made the active and inactive calls. Cut-off read from the data, not from the text of the source: active = GI50 up to about 1.1 µM and inactive = higher.
measuredProperty: GI50

Log: M14, molecule C=CCc1cc(C=C(C#N)C#N)cc(OC)c1O , GI50 = > 100 µM (inactive)

Kindly note: M14, O=C(Nc1ccc(Cl)cc1)c1cc2c(cc1Cl)Sc1nccn1S2(=O)=O , GI50 value reported: > 100 µM (inactive)

# value of GI50, M14, item Nc1ccc2nc(Nc3ccc(F)cc3)cnc2c1 = > 100 µM (inactive)

Entry O=c1oc2ccccc2[n+]([O-])c1-c1ccccc1 , M14 data, GI50 value: > 100 µM (inactive)

Item NC(=O)CC1OC(=O)Cc2cc3c(c(O)c21)C(=O)c1c(O)cccc1C3=O (stereo not given) ; assay system M14; GI50 reported as > 100 µM (inactive)
